The reported numbers originate from ChEMBL document CHEMBL2346506.

- experimentalProtocol: Inhibition of Notch signaling pathway in human HeLa cells assessed as inhibition of PMA induced luciferase treated 30 mins before induction
- Assay type: cell-based
Let's look at some compounds and their measured IC50.
Give the value in µM but do not write µM after it.

{"compound": "Oc1ccc(/C=C/c2cc(O)cc(O)c2)cc1", "IC50 / µM": 40}

Using the record for COc1cc(/C=C\c2ccc(OC)c(OC)c2)cc(OC)c1 [(Z)-3,4,3',5'-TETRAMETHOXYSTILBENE] , report its IC50.
40

---

Let's look at some molecules and their measured inhibition.
- experimentalProtocol: Inhibition of E2F signaling pathway in human HeLa cells assessed as inhibition of PMA induced luciferase at 100 uM treated 30 mins before induction
- Type: cell-based

Some molecules with known inhibition results, for comparison:
{"molecule": "COc1cc(/C=C\\c2ccc(OC)c(OC)c2)cc(OC)c1 [(Z)-3,4,3',5'-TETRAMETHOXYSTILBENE]", "inhibition": "< 40%"}
{"molecule": "Oc1ccc(/C=C/c2cc(O)cc(O)c2)cc1", "inhibition": "< 40%"}

Read the next record carefully.
Using the record for COc1cc(/C=C/c2ccc(OC)c(OC)c2)cc(OC)c1 [(E)-3,4,3',5'-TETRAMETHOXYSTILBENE] , report its inhibition.
< 40%
